test system: Fibroblast; test: Multiplex assay against human fibroblast; assay type: toxicity, cell-based; conditions: 24 h, 1 µM, compound concentration 1 uM, replicate 1
Exercise: state measured Population Apoptotic (%) for each of the molecules provided.
Please respond with the number in % and leave the unit unwritten.

Problem: Please give the measured Population Apoptotic (%) for this molecule: `CC(C)(C)NC[C@H](O)COc1nsnc1N1CCOCC1`
Solution: 60

Problem: And the next one, `COC(=O)C1=C(C)NC(C)=C(C(=O)OCCCN2CCC(c3ccccc3)(c3ccccc3)CC2)[C@H]1c1cccc([N+](=O)[O-])c1` ?
Solution: 76

Problem: And the next one, `COc1ccc(-c2ccc3ncc4c(c3c2)n(-c2ccc(N3CCNCC3)c(C(F)(F)F)c2)c(=O)n4C)cn1.O=C(O)/C=C\C(=O)O` ?
Solution: 69

====

tested on: U2OS; assay: Multiplex assay against U2OS; assay type: toxicity, cell-based; conditions: human, 48 h, 10 µM, compound concentration 10 uM, replicate 1
MEASUREMENT KIND: Population Healthy Nuclei (%)
Please respond with the number in % and leave the unit unwritten.

Problem: Please give the measured Population Healthy Nuclei (%) for this molecule: `CN1CCN(Cc2ccc(Nc3ncc(Cl)c(Nc4ccccc4S(=O)(=O)N(C)C)n3)cc2)CC1`
Solution: 8

Problem: And the next one, `CC(C)OC(=O)N1CCC(Oc2ncnc3c2cnn3-c2ccc(S(C)(=O)=O)cc2F)CC1` ?
Solution: 82

Problem: And the next one, O=C(c1cc2c(cc1F)OC(c1ccc(F)cc1)(c1ccc(Cl)cc1Cl)O2)N1CCOCC1 (stereo not drawn) ?
Solution: 44

Problem: And the next one, `CC(C)NC(=O)N1CC[C@H](NC2=Nc3cc(F)ccc3N(CC(F)F)c3ccc(Cl)cc32)C1` ?
Solution: 47

Problem: And the next one, `CNC(=O)Nc1ccc(-c2nc(N3CC4CCC(C3)O4)c3cnn(C4CCC5(CC4)OCCO5)c3n2)cc1` ?
Solution: 23

Problem: And the next one, `CCc1ccc(OCc2ccccc2C(=O)Nc2ccc3nc(C)cc(N)c3c2)cc1.Cl` ?
Solution: 12

Problem: And the next one, Cc1cccc(CN2CCN(C(c3ccccc3)c3ccc(Cl)cc3)CC2)c1.Cl.Cl (stereo not drawn) ?
Solution: 72

Problem: And the next one, `COc1ccc(-c2ccc3ncc4c(c3c2)n(-c2ccc(N3CCNCC3)c(C(F)(F)F)c2)c(=O)n4C)cn1.O=C(O)/C=C\C(=O)O` ?
Solution: 3

====

test system: Fibroblast; test: Multiplex assay against human fibroblast; assay type: toxicity, cell-based; details: 12 h, 1 µM, compound concentration 1 uM, replicate 2
Under this convention, satisfied denotes Population Mitotic Cells (%) strictly below 40% and not satisfied denotes Population Mitotic Cells (%) at or above 40%.

Problem: Bench note: check whether `COC(=O)C1=C(C)NC(C)=C(C(=O)OCCCN2CCC(c3ccccc3)(c3ccccc3)CC2)[C@H]1c1cccc([N+](=O)[O-])c1` shows Population Mitotic Cells (%) below 40%
Solution: satisfied

Problem: And the next one, `CC(C)CC(=O)Nc1[nH]nc2c1CN(C(=O)C1CCN(C)CC1)C2(C)C` ?
Solution: not satisfied

Problem: And the next one, `Cc1c[nH]c2nccc(Oc3c(F)cc(Nc4cc(Cl)nc(N)n4)cc3F)c12` ?
Solution: not satisfied

Problem: And the next one, `O=c1[nH]c2ccccc2n1C1CCN(Cc2ccc(-c3[nH]c4cc5ncnc5cc4nc3-c3ccccc3)cc2)CC1` ?
Solution: satisfied

Problem: And the next one, `C[C@]12CC[C@@H]3c4ccc(O)cc4CC[C@H]3[C@@H]1CC[C@@H]2O` ?
Solution: not satisfied

Problem: And the next one, `COc1ccccc1CN[C@H]1C2CCN(CC2)[C@H]1C(c1ccccc1)c1ccccc1` ?
Solution: satisfied

Problem: And the next one, `CC(C)(C)NC[C@H](O)COc1nsnc1N1CCOCC1` ?
Solution: satisfied

Problem: And the next one, `CC(C)NC(=O)N1CC[C@H](NC2=Nc3cc(F)ccc3N(CC(F)F)c3ccc(Cl)cc32)C1` ?
Solution: not satisfied
